B1: GLTSCR2 (parent)
chain: LARRRRRRQARREAEADKPRRLGR

Variants of: B1
measurement protocol: protein stability index of a GFP-peptide fusion (GPS, HEK-293T) (PSI 1-6); higher = more stable;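 note: lentivirally expressed fusions sorted by FACS into six bins by GFP to DsRed ratio, PSI derived from sequencing read proportions per bin multiplied by bin number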
test settings: c terminus: a fixed tail appended
measured endpoint: protein stability index
I only need the number, thanks.

Consider the following illustrative entries.
1. LARRRRRCQARREAEADKPRRLGR [R8C] | 3.8
2. LARRRRRRQARREAEAPKPRRLGR [D17P] | 4.33
3. LARRRKRRQARREAEADKPRRLGR [R6K] | 4.79
4. LARRRRRRQARREAEADKPRRLGS [R24S] | 4.85
5. LARRRRRRQGRREAEADKPRRLGR [A10G] | 4.25
6. LARRRRRSQARREAEADKPRRLGR [R8S] | 5.01

// returns reported protein stability index for input LARRRRRRQARREAEAMKPRRLGR [D17M]
4.49

// returns reported protein stability index for input LARRRRRQQARREAEADKPRRLGR [R8Q]
4.23

From: the supplement of paper PMC10567573
